- Tested on: Nakaseomyces glabratus
- assay.remarks: Antimicrobial activity against Candida glabrata by Alamar blue method
- Assay type: functional, organism-based
quantity.measured: log10(IC50) (log10 of the value in µg/mL)
Form field - Quantity: IC50; Unit: µg/mL; Scale: log10

Oc1ccc(CSc2cc3ccccc3[n+](CCCCCC3CCCCC3)c2)cc1.[I-]    0.90

Observed log10(IC50) on Nakaseomyces glabratus, entry C[C@@H]1[C@H](O)[C@@H](C)/C=C/C=C/C=C/C=C/C=C/C=C/C=C/[C@H](O[C@@H]2O[C@H](C)[C@@H](O)[C@H](N)[C@@H]2O)C[C@@H]2O[C@](O)(C[C@@H](O)C[C@@H](O)[C@H](O)CC[C@@H](O)C[C@@H](O)CC(=O)O[C@H]1C)C[C@H](O)[C@H]2C(=O)O [AMPHOTERICIN B] , equals -0.66

Observed log10(IC50) on Nakaseomyces glabratus, entry [I-].c1ccc(CSc2cc3ccccc3[n+](CCCCCC3CCCCC3)c2)cc1 , equals 0.46

Observed log10(IC50) on Nakaseomyces glabratus, entry Clc1ccc(CSc2cc3ccccc3[n+](CCCCCC3CCCCC3)c2)cc1.[I-] , equals -0.36
